test.system: Cholinesterase (Homo sapiens, UniProt P06276)
Sequence (P06276 whole entry): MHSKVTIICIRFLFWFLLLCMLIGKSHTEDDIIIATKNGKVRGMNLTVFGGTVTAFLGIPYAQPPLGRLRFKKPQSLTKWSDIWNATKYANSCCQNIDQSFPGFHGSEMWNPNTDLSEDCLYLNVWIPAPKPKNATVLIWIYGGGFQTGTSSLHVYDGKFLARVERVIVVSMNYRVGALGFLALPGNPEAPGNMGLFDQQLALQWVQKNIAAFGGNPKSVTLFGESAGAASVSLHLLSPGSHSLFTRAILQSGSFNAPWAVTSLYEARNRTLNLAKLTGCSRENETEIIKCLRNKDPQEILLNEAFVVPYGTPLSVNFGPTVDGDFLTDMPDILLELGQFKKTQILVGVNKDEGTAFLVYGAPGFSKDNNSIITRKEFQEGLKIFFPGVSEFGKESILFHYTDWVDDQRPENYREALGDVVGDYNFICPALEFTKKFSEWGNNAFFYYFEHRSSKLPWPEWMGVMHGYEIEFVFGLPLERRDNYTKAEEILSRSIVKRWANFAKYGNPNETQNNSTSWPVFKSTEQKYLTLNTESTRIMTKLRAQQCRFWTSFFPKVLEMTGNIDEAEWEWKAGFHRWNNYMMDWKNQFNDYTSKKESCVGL
test.name: Competitive inhibition of BuChE (unknown origin) using butyrylthiocholine as substrate by Lineweaver-Burk double reciprocal plot analysis
hey, just use True if measured Ki is less than 80 nM, otherwise False

[Q] # strict comparison: is reported Ki < 80 nM? input = "Nc1ccc2c(c1)c(OCc1cccc3ccccc13)nn2CCN1CCCC1"
[A] False

[Q] # strict comparison: is reported Ki < 80 nM? input = "c1ccc2c(COc3nn(CCN4CCCC4)c4ccccc34)cccc2c1"
[A] False

[Q] # strict comparison: is reported Ki < 80 nM? input = "O=[N+]([O-])c1ccc2c(c1)c(OCc1cccc3ccccc13)nn2CCN1CCCC1"
[A] False

[Q] # strict comparison: is reported Ki < 80 nM? input = "c1ccc2c(COc3nn(CCN4CCCCC4)c4ccccc34)cccc2c1"
[A] False

[Q] # strict comparison: is reported Ki < 80 nM? input = "CC(C)N(CCn1nc(OCc2cccc3ccccc23)c2ccccc21)C(C)C"
[A] True

* * *

Below are compounds with their IC50 as measured on Acetylcholinesterase (Homo sapiens, UniProt P22303).
Sequence (P22303 whole entry): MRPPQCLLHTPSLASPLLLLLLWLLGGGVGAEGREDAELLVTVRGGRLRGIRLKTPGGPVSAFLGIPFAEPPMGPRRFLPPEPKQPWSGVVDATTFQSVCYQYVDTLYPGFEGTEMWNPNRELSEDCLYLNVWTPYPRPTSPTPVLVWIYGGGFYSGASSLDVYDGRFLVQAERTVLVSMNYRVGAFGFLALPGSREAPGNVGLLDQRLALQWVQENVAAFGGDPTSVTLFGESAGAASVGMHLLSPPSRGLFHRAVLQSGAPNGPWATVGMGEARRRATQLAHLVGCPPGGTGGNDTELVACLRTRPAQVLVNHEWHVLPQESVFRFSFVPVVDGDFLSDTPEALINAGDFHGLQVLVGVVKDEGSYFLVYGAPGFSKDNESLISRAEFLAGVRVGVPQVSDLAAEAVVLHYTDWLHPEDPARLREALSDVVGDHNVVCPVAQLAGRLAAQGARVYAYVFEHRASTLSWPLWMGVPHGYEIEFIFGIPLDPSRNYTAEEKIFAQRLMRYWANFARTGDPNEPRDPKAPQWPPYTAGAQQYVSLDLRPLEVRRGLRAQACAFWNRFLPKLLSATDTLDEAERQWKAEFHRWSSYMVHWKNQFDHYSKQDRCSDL
Please state the figure in µM; there is no need to write the unit.

[Q] Provide one value: measured IC50 of "CCCCCn1nc(OCc2ccc(OC)cc2)c2cc([N+](=O)[O-])ccc21"
[A] 9.7

[Q] Provide one value: measured IC50 of "CCCCCn1nc(OCc2ccc3ccccc3c2)c2cc([N+](=O)[O-])ccc21"
[A] 8.2

[Q] Provide one value: measured IC50 of "O=[N+]([O-])c1ccc2c(c1)c(OCc1ccc3ccccc3c1)nn2Cc1ccccc1"
[A] 6.3

[Q] Provide one value: measured IC50 of "c1ccc(COc2nn(Cc3ccccc3)c3ccccc23)cc1"
[A] 2.9

* * *

Below are compounds with their pIC50 as measured on Cholinesterase (Homo sapiens, UniProt P06276).
On this scale, pIC50 is minus log10 of a concentration expressed in M (mol/L).

[Q] Provide one value: measured pIC50 of "c1ccc2cc(COc3nn(CCN4CCCCC4)c4ccccc34)ccc2c1"
[A] 6.01

[Q] Provide one value: measured pIC50 of "Brc1ccc2c(c1)c(OCc1ccc3ccccc3c1)nn2CCN1CCCCC1"
[A] 6.72

* * *

Below are molecules with their IC50 as measured on Cholinesterase (Homo sapiens, UniProt P06276).

[Q] Provide one value: measured IC50 of "Nc1ccc2c(c1)c(OCc1ccccc1)nn2Cc1ccccc1"
[A] > 10 µM

[Q] Provide one value: measured IC50 of "c1ccc2c(c1)c(OCC1CCCCC1)nn2CC1CCCCC1"
[A] > 10 µM

[Q] Provide one value: measured IC50 of "COc1ccc(COc2nn(CCN(C(C)C)C(C)C)c3ccccc23)cc1"
[A] 4.8 µM

[Q] Provide one value: measured IC50 of "O=[N+]([O-])c1ccc2c(c1)c(OCC1CCCCC1)nn2Cc1ccccc1"
[A] > 10 µM

[Q] Provide one value: measured IC50 of "CCCCCn1nc(OCc2ccc3ccccc3c2)c2cc([N+](=O)[O-])ccc21"
[A] > 10 µM

[Q] Provide one value: measured IC50 of "COc1ccc(COc2nn(Cc3ccc(OC)cc3)c3ccccc23)cc1"
[A] > 10 µM

[Q] Provide one value: measured IC50 of "Nc1ccc2c(c1)c(OCc1cccc3ccccc13)nn2CCN1CCCC1"
[A] 3 µM

[Q] Provide one value: measured IC50 of "c1ccc2c(COc3nn(CCN4CCCCC4)c4ccccc34)cccc2c1"
[A] 0.81 µM

[Q] Provide one value: measured IC50 of "c1ccc(COc2nn(Cc3ccccc3)c3ccccc23)cc1"
[A] > 25 µM

[Q] Provide one value: measured IC50 of "CC(C)N(CCn1nc(OCc2cccc3ccccc23)c2ccccc21)C(C)C"
[A] 0.1 µM

[Q] Provide one value: measured IC50 of "CCCCCOc1nn(CCCCC)c2ccc([N+](=O)[O-])cc12"
[A] > 10 µM

[Q] Provide one value: measured IC50 of "O=[N+]([O-])c1ccc2c(c1)c(OCc1ccc3ccccc3c1)nn2CCN1CCOCC1"
[A] > 10 µM

[Q] Provide one value: measured IC50 of "COc1ccc(COc2nn(CCN(C(C)C)C(C)C)c3ccc([N+](=O)[O-])cc23)cc1"
[A] > 100 µM

[Q] Provide one value: measured IC50 of "c1ccc2c(COc3nn(CCN4CCCC4)c4ccccc34)cccc2c1"
[A] 2.83 µM

[Q] Provide one value: measured IC50 of "O=[N+]([O-])c1ccc2c(c1)c(OCc1ccc3ccccc3c1)nn2Cc1ccccc1"
[A] > 10 µM

[Q] Provide one value: measured IC50 of "O=[N+]([O-])c1ccc2c(c1)c(OCc1cccc3ccccc13)nn2CCN1CCCC1"
[A] 4.5 µM

[Q] Provide one value: measured IC50 of "O=[N+]([O-])c1ccc2c(c1)c(OCc1ccc3ccccc3c1)nn2Cc1ccc2ccccc2c1"
[A] > 10 µM

[Q] Provide one value: measured IC50 of "CCCCCn1nc(OCc2ccc(OC)cc2)c2cc([N+](=O)[O-])ccc21"
[A] > 10 µM

[Q] Provide one value: measured IC50 of "O=[N+]([O-])c1ccc2c(c1)c(OCc1cccc3ccccc13)nn2Cc1cccc2ccccc12"
[A] > 10 µM

[Q] Provide one value: measured IC50 of "O=[N+]([O-])c1ccc2c(c1)c(OCc1ccccc1)nn2Cc1ccccc1"
[A] > 10 µM

[Q] Provide one value: measured IC50 of "O=[N+]([O-])c1ccc2c(c1)c(OCc1ccc3ccccc3c1)nn2CCN1CCCCC1"
[A] 3.6 µM
